test: MTT cytotoxicity, statements over all cell lines of the panel; assay type: cell-based; details: mouse (B16F10), human (MIA PaCa-2, PANC-1, HT-29, AsPC-1), B16F10, MIA PaCa-2, PANC-1, HT-29 and AsPC-1 cells, rhodin g7 7^1-ethyl ester dark, concentrations as high as 37.4 µM; read-out: cellular viability
measured-quantity: viability

Challenge: Which viability is reported for this compound? `C=Cc1c(C)c2cc3nc(c(CC(=O)O)c4[nH]c(cc5nc(cc1[nH]2)C(C(=O)OCC)=C5CC)c(C)c4C(=O)O)[C@@H](CCC(=O)O)[C@@H]3C`
Response given: ≥ 90%

###

experiment: MTT cytotoxicity, statements over all cell lines of the panel; assay type: cell-based; conditions: mouse (B16F10), human (MIA PaCa-2, PANC-1, HT-29, AsPC-1), B16F10, MIA PaCa-2, PANC-1, HT-29 and AsPC-1 cells, rhodin g7 7^1-ethyl ester dark, doses as high as 660 µM, all cell lines; read-out: cellular viability
measured-quantity: viability

Challenge: Which viability is reported for this molecule? C=Cc1c(C)c2cc3nc(c(CC(=O)O)c4[nH]c(cc5nc(cc1[nH]2)C(C(=O)OCC)=C5CC)c(C)c4C(=O)O)[C@@H](CCC(=O)O)[C@@H]3C [rhodin g7 7^1-ethyl ester]
Response given: < 10%

###

assay: MTT cytotoxicity (PDT and dark), RAW264.7 normal cell line; assay type: cell-based, Murine; details: mouse, RAW264.7 cells (normal macrophage), RAW264.7 normal macrophage; no illumination, MTT after 24 h; read-out: IC50, dark cytotoxicity
measured-quantity: IC50 (µM)
Express the result in µM but write the number alone.

chem-smiles	IC50 / µM
C=Cc1c(C)c2cc3nc(c(CC(=O)O)c4[nH]c(cc5nc(cc1[nH]2)C(C)=C5CC)c(C)c4C(=O)O)[C@@H](CCC(=O)O)[C@@H]3C	456

Kindly review the next molecule as well.
Challenge: Which IC50 is reported for this molecule? `C=Cc1c(C)c2cc3nc(c(CC(=O)O)c4[nH]c(cc5nc(cc1[nH]2)C(C(=O)OCC)=C5CC)c(C)c4C(=O)O)[C@@H](CCC(=O)O)[C@@H]3C`
Response given: 466

###

Experiment: MTT cytotoxicity (PDT and dark), B16F10
Type: cell-based, Murine
Settings: mouse, B16F10 cells, no illumination, MTT after 24 h
Description: B16F10 (KCLB80008), MIA PaCa-2 (KCLB21420), PANC-1 (KCLB21469), HT-29 (KCLB30038), AsPC-1 (KCLB21682), and Raw 264.7 (KCLB40071) cells were procured from the Korean Cell Line Bank (KCLB, Seoul, Republic of Korea). […]
measured-quantity: IC50
Answer as a quantity: numeral, then unit.

chem-smiles	IC50
C=Cc1c(C)c2cc3nc(c(CC(=O)O)c4[nH]c(cc5nc(cc1[nH]2)C(C)=C5CC)c(C)c4C(=O)O)[C@@H](CCC(=O)O)[C@@H]3C	556 µM

Kindly review the next compound as well.
Challenge: Which IC50 is reported for this compound? `C=Cc1c(C)c2cc3nc(c(CC(=O)O)c4[nH]c(cc5nc(cc1[nH]2)C(C(=O)OCC)=C5CC)c(C)c4C(=O)O)[C@@H](CCC(=O)O)[C@@H]3C`
Response given: 262 µM

###

experiment: MTT cytotoxicity, statements over all cell lines of the panel; assay type: cell-based; conditions: mouse (B16F10), human (MIA PaCa-2, PANC-1, HT-29, AsPC-1), B16F10, MIA PaCa-2, PANC-1, HT-29 and AsPC-1 cells, chlorin e6 dark, concentrations up to 729.4 µM, all cell lines; read-out: cellular viability
measured-quantity: viability

Challenge: Which viability is reported for this compound? `C=Cc1c(C)c2cc3nc(c(CC(=O)O)c4[nH]c(cc5nc(cc1[nH]2)C(C)=C5CC)c(C)c4C(=O)O)[C@@H](CCC(=O)O)[C@@H]3C`
Response given: < 10%
